- test_target: influenza virus transcription (Influenza A virus (A/Port Chalmers/1/1973(H3N2)))
- stated_conditions: read-out: IC50, inhibition of influenza virus transcription
Structures can show the parent of a compound that is named as a salt.
assay_metric: pIC50
Expect pIC50 as a plain number equal to -log10 of the molar concentration.

Consider the compound O=C(O)C(=O)CC(=O)C1(Cc2ccc(Cl)cc2)CCCN(Cc2ccccc2)C1 (stereo not shown) [Compound A, hydrochloride] and give its measured pIC50.
6.30

====

- test_target: Hela DNA Polymerase-a (Homo sapiens, UniProt P09884)
- Construct: Hela cell DNA polymerase α; endogenous in cells; host or cells: HeLa cells
- Sequence (P09884 whole entry): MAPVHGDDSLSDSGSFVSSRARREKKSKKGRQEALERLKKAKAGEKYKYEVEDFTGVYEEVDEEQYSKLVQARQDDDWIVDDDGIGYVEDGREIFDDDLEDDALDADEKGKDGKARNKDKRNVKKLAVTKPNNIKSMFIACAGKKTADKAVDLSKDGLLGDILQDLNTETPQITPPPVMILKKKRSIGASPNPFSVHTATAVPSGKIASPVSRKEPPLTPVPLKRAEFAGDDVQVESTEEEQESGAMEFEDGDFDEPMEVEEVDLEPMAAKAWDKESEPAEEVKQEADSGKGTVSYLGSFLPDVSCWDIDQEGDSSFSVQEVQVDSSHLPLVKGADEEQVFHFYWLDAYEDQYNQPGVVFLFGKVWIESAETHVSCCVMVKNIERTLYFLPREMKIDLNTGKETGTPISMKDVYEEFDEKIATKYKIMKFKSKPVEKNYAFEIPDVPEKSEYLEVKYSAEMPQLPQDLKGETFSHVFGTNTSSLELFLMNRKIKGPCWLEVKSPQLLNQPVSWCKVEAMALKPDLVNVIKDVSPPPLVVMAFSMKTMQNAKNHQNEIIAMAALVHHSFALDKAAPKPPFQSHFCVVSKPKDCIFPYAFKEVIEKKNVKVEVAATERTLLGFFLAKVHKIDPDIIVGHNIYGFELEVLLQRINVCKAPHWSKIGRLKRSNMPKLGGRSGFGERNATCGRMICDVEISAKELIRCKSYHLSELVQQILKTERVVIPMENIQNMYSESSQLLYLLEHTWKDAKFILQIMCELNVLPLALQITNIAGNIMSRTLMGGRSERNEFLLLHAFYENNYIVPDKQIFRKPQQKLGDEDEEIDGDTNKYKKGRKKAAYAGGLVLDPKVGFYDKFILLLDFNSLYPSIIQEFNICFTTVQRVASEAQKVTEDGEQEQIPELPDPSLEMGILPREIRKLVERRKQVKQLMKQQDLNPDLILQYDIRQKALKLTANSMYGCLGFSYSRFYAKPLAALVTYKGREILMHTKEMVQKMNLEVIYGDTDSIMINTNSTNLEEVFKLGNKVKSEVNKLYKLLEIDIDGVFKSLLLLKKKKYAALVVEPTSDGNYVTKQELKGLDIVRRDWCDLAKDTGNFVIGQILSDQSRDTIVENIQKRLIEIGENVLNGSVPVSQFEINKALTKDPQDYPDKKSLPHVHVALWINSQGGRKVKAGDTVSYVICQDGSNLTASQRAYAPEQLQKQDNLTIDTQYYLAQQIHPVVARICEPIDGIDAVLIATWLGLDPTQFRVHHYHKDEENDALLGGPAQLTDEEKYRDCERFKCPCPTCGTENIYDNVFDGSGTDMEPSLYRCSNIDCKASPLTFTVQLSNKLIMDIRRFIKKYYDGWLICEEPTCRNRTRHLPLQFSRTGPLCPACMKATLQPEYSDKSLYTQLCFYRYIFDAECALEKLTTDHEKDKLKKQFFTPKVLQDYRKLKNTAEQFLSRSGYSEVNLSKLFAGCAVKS
- test_description: Hela DNA Polymerase-a assay
- Assay type: biochemical
pIC50: −log10 of the molar value. Counter-ions that a name gives are not always drawn.
assay_metric: pIC50

Consider the compound O=C(O)C(=O)CC(=O)C1(Cc2ccc(Cl)cc2)CCCN(Cc2ccccc2)C1 (stereo not shown) [Compound A, hydrochloride] and give its measured pIC50.
< 4.00

====

- test_target: Influenza Endonuclease (Influenza A virus, UniProt P03433)
Where a name gives a salt, the structure may show the parent alone.
assay_metric: IC50 (nM)
Reply numerically in nM, unit not repeated.

Consider the compound O=C(O)C(=O)CC(=O)C1(Cc2ccc(Cl)cc2)CCCN(Cc2ccccc2)C1 (stereo not shown) [Compound A, hydrochloride] and give its measured IC50.
1800

====

- test_target: RNase T1 (Aspergillus oryzae, UniProt P00651)
- Sequence (P00651 27-130): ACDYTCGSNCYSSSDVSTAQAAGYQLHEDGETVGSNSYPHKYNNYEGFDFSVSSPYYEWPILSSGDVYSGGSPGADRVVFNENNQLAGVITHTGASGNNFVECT
- test_description: RNase T1 assay
pIC50: −log10 of the molar value. Where a name gives a salt, the structure may show the parent alone.
assay_metric: pIC50

Consider the molecule O=C(O)C(=O)CC(=O)C1(Cc2ccc(Cl)cc2)CCCN(Cc2ccccc2)C1 (stereo not shown) [Compound A, hydrochloride] and give its measured pIC50.
< 3.70

====

- test_target: T7 Phage RNA Polymerase (Escherichia phage T7, UniProt P00573)
- Sequence (P00573 whole entry): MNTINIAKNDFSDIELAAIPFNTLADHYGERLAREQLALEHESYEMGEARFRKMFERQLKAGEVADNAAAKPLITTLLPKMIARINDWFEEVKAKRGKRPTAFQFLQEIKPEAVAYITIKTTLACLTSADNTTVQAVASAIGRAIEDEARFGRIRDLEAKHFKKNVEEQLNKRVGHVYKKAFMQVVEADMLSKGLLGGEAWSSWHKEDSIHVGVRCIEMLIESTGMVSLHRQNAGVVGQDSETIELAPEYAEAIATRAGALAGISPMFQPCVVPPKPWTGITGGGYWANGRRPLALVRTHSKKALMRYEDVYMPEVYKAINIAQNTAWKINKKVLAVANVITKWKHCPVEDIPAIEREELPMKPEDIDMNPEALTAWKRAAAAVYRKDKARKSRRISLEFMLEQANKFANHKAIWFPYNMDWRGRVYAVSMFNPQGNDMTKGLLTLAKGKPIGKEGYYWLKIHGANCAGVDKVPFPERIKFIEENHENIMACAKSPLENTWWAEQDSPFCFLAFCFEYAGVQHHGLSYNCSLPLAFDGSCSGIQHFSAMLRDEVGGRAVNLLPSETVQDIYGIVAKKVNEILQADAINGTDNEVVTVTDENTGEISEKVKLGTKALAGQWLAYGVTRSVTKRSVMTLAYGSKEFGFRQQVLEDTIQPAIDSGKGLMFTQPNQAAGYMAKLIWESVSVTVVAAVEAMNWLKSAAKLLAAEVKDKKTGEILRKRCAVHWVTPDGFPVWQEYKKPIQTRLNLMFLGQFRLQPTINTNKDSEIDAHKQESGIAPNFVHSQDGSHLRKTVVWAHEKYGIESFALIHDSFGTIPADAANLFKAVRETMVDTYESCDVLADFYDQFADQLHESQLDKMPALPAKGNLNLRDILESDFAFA
pIC50: −log10 of the molar value. Where a name gives a salt, the structure may show the parent alone.
assay_metric: pIC50

Consider the compound O=C(O)C(=O)CC(=O)C1(Cc2ccc(Cl)cc2)CCCN(Cc2ccccc2)C1 (stereo not shown) [Compound A, hydrochloride] and give its measured pIC50.
< 4.00

====

- test_target: influenza virus transcription (Influenza A virus (A/Japan/305-/1957(H2N2)), UniProt Q1K9Q4)
- stated_conditions: read-out: IC50, inhibition of influenza virus transcription; virus strain A/Japan/305/57 (H2N2); primed with cap1 ALMV
Counter-ions that a name gives are not always drawn.
assay_metric: pIC50
Expect pIC50 as a plain number equal to -log10 of the molar concentration.

Consider the molecule O=C(O)C(=O)CC(=O)C1(Cc2ccc(Cl)cc2)CCCN(Cc2ccccc2)C1 (stereo not shown) [Compound A, hydrochloride] and give its measured pIC50.
6.60

====

- test_target: influenza transcription (flu APR8 virus) (Influenza A virus)
- test_description: biochemical
- Design: species or system influenza virus A/PR/8/34 (H1N1)
- stated_conditions: read-out: IC50, inhibition of influenza virus transcription
Counter-ions that a name gives are not always drawn.
assay_metric: IC50 (nM)
Reply numerically in nM, unit not repeated.

Consider the molecule O=C(O)C(=O)CC(=O)C1(Cc2ccc(Cl)cc2)CCCN(Cc2ccccc2)C1 (stereo not shown) [Compound A, hydrochloride] and give its measured IC50.
1100

====

- test_target: RNase A (Bos taurus)
- Sequence (P61823 27-150): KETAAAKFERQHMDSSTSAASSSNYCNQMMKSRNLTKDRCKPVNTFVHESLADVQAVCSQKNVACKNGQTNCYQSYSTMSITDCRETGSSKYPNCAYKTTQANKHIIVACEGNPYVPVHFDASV
Counter-ions that a name gives are not always drawn.
assay_metric: IC50

Consider the molecule O=C(O)C(=O)CC(=O)C1(Cc2ccc(Cl)cc2)CCCN(Cc2ccccc2)C1 (stereo not shown) [Compound A, hydrochloride] and give its measured IC50.
> 200 µM

====

- test_target: influenza transcription (flu APR8 virus) (Influenza A virus, UniProt P03433)
- test_description: biochemical
- Parameters: species or system influenza virus A/PR/8/34 (H1N1)
Structures can show the parent of a compound that is named as a salt.
assay_metric: pIC50
Expect pIC50 as a plain number equal to -log10 of the molar concentration.

Consider the molecule O=C(O)C(=O)CC(=O)C1(Cc2ccc(Cl)cc2)CCCN(Cc2ccccc2)C1 (stereo not shown) [Compound A, hydrochloride] and give its measured pIC50.
5.96

====

- test_target: cap-independent influenza transcription primed with ApG (Influenza A virus, UniProt P03431)
pIC50: −log10 of the molar value. Counter-ions that a name gives are not always drawn.
assay_metric: pIC50

Consider the molecule O=C(O)C(=O)CC(=O)C1(Cc2ccc(Cl)cc2)CCCN(Cc2ccccc2)C1 (stereo not shown) [Compound A, hydrochloride] and give its measured pIC50.
< 3.00
